system: sulfonylurea herbicide-sensitive Lindernia dubia subsp. major Pennell; experiment: Paddy pot weeding test, flooded, two-leaf stage (Test Example 1); type: in vivo; conditions: 1 g/are, three weeks after treatment, sensitive biotype, Makabe Town, Ibaraki Pref.
Parameter measured: S Lindernia dubia subsp. major Pennell (effect index)

Using the record for CCCc1nc2ccc(SC)nn2c1S(=O)(=O)NC(=O)Nc1nc(OC)cc(OC)n1 [Compound No. 31] , report its S Lindernia dubia subsp. major Pennell (effect index).
5 (excellent 81 to 100)

Using the record for CCc1nc2ccc(SC)nn2c1NC(=O)NS(=O)(=O)c1nc(OC)cc(OC)n1 [Compound No. 8] , report its S Lindernia dubia subsp. major Pennell (effect index).
5 (excellent 81 to 100)

Using the record for CCc1nc2ccc(N(C)C)nn2c1NC(=O)NS(=O)(=O)c1nc(OC)cc(OC)n1 [Compound No. 4] , report its S Lindernia dubia subsp. major Pennell (effect index).
5 (excellent 81 to 100)

Using the record for COc1cc(OC)nc(NC(=O)NS(=O)(=O)c2c(C)nc3cccnn23)n1 [comparison 1, reference compound] , report its S Lindernia dubia subsp. major Pennell (effect index).
5 (excellent 81 to 100)

Using the record for COc1cc(OC)nc(S(=O)(=O)NC(=O)Nc2c(S(C)(=O)=O)nn3ccsc23)n1 [Compound No. 35] , report its S Lindernia dubia subsp. major Pennell (effect index).
5 (excellent 81 to 100)

Using the record for COc1cc(OC)nc(S(=O)(=O)NC(=O)Nc2c(C)nc3ccc(SC)nn23)n1 [Compound No. 19] , report its S Lindernia dubia subsp. major Pennell (effect index).
5 (excellent 81 to 100)

Using the record for C=Cc1ccc2nc(Cl)c(S(=O)(=O)NC(=O)Nc3nc(OC)cc(OC)n3)n2n1 [Compound No. 43] , report its S Lindernia dubia subsp. major Pennell (effect index).
5 (excellent 81 to 100)

---

Parameter measured: melting point

Here are 10 compounds together with their reported answers.
>  <Compound>
CCSc1ccc2nc(C)c(NC(=O)NS(=O)(=O)c3nc(OC)cc(OC)n3)n2n1 [Compound No. 18]

>  <Test result>
163 to 165 °C

$$$$
>  <Compound>
COc1cc(OC)nc(S(=O)(=O)NC(=O)Nc2c(C)nc3ccc(SC)nn23)n1 [Compound No. 19]

>  <Test result>
178 to 180 °C (dec.)

$$$$
>  <Compound>
CCc1nc2ccc(C)nn2c1NC(=O)NS(=O)(=O)c1nc(OC)cc(OC)n1 [Compound No. 1]

>  <Test result>
182 to 184 °C

$$$$
>  <Compound>
CCc1ccc2nc(C)c(S(=O)(=O)NC(=O)Nc3nc(OC)cc(OC)n3)n2n1 [Compound No. 13]

>  <Test result>
172 to 174 °C

$$$$
>  <Compound>
COc1cc(OC)nc(S(=O)(=O)NC(=O)Nc2c(C)nc3ccc(N(C)C)nn23)n1 [Compound No. 14]

>  <Test result>
183 to 185 °C (dec.)

$$$$
>  <Compound>
COc1cc(OC)nc(S(=O)(=O)NC(=O)Nc2c(C)nc3ccc(OC)nn23)n1 [Compound No. 17]

>  <Test result>
241 °C

$$$$
>  <Compound>
CCc1ccc2nc(Cl)c(NC(=O)NS(=O)(=O)c3nc(OC)cc(OC)n3)n2n1 [Compound No. 37]

>  <Test result>
162 to 166 °C

$$$$
>  <Compound>
CCc1nc2ccc(S(C)(=O)=O)nn2c1NC(=O)NS(=O)(=O)c1nc(OC)cc(OC)n1 [Compound No. 9]

>  <Test result>
206 to 208 °C

$$$$
>  <Compound>
COc1cc(OC)nc(S(=O)(=O)NC(=O)Nc2c(C)nc3c(C)cc(SC)nn23)n1 [Compound No. 20]

>  <Test result>
191 to 193 °C (dec.)

$$$$
>  <Compound>
CCc1nc2ccc(N(C)C)nn2c1NC(=O)NS(=O)(=O)c1nc(OC)cc(OC)n1 [Compound No. 4]

>  <Test result>
174 to 176 °C

$$$$

Using the record for COc1cc(OC)nc(S(=O)(=O)NC(=O)Nc2c(Cl)nc3ccc(N(C)C)nn23)n1 [Compound No. 22] , report its melting point.
193 to 195 °C

Using the record for CCc1nc2ccc(SC)nn2c1NC(=O)NS(=O)(=O)c1nc(OC)cc(OC)n1 [Compound No. 8] , report its melting point.
146 to 148 °C

Using the record for CCSc1ccc2nc(Cl)c(NC(=O)NS(=O)(=O)c3nc(OC)cc(OC)n3)n2n1 [Compound No. 25] , report its melting point.
180 to 182 °C

Using the record for CCSc1ccc2nc(CC)c(S(=O)(=O)NC(=O)Nc3nc(OC)cc(OC)n3)n2n1 [Compound No. 7] , report its melting point.
160 to 165 °C (dec.)

---

Parameter melting point: see the listing below.

Here are 2 compounds together with their reported answers.
>  <Compound>
COc1cc(OC)nc(S(=O)(=O)NC(=O)Nc2c(Cl)nc3ccc(SC)nn23)n1 [Compound No. 26]

>  <Parameter measured>
melting point

>  <Test result>
163 to 165 °C

$$$$
>  <Compound>
CCOc1ccc2nc(CC)c(NC(=O)NS(=O)(=O)c3nc(OC)cc(OC)n3)n2n1 [Compound No. 5]

>  <Parameter measured>
melting point

>  <Test result>
180 to 181 °C

$$$$

Proceed to the following item.
Using the record for CCc1nc2ccc(OC)nn2c1NC(=O)NS(=O)(=O)c1nc(OC)cc(OC)n1 [Compound No. 6] , report its melting point.
118 to 123 °C (dec.)
